- System: STAT5b-GyrB fusion proteins
- condition.notes: Table 3, Example 2; 9 nM
Please respond with reported Prolif. (cpm) for every item in the list.
Kindly write the number and append the unit.

QUERY: Could you share what Prolif. (cpm) was measured for COC1C(OC(=O)c2ccc(C)[nH]2)C(O)C(Oc2ccc3c(O)c(NC(=O)c4ccc(C(=O)Nc5c(O)c6ccc(OC7OC(C)(C)C(OC)C(OC(=O)c8ccc(C)[nH]8)C7O)c(C)c6oc5=O)nc4)c(=O)oc3c2C)OC1(C)C (stereo not drawn) [Cmpd 3] , tested on STAT5b-GyrB fusion proteins?
RESULT: 16767 cpm

QUERY: Could you share what Prolif. (cpm) was measured for COC1C(OC(=O)c2ccc(C)[nH]2)C(O)C(Oc2ccc3c(O)c(NC(=O)c4cc(C(=O)Nc5c(O)c6ccc(OC7OC(C)(C)C(OC)C(OC(=O)c8ccc(C)[nH]8)C7O)c(C)c6oc5=O)[nH]n4)c(=O)oc3c2C)OC1(C)C (stereo not drawn) [Cmpd 7] , tested on STAT5b-GyrB fusion proteins?
RESULT: 16599 cpm

QUERY: Could you share what Prolif. (cpm) was measured for COC1C(OC(=O)c2ccc(C)[nH]2)C(O)C(Oc2ccc3c(O)c(NC(=O)c4c[nH]c(C(=O)Nc5c(O)c6ccc(OC7OC(C)(C)C(OC)C(OC(=O)c8ccc(C)[nH]8)C7O)c(C)c6oc5=O)c4C)c(=O)oc3c2C)OC1(C)C (stereo not drawn) [Cou., coumermycin] , tested on STAT5b-GyrB fusion proteins?
RESULT: 20551 cpm

QUERY: Could you share what Prolif. (cpm) was measured for COC1C(OC(=O)c2ccc(C)[nH]2)C(O)C(Oc2ccc3c(O)c(NC(=O)c4ccc(C(=O)Nc5c(O)c6ccc(OC7OC(C)(C)C(OC)C(OC(=O)c8ccc(C)[nH]8)C7O)c(C)c6oc5=O)cc4)c(=O)oc3c2C)OC1(C)C (stereo not drawn) [Cmpd 8] , tested on STAT5b-GyrB fusion proteins?
RESULT: 19377 cpm

QUERY: Could you share what Prolif. (cpm) was measured for COC1C(OC(=O)c2ccc(C)[nH]2)C(O)C(Oc2ccc3c(O)c(NC(=O)c4cncc(C(=O)Nc5c(O)c6ccc(OC7OC(C)(C)C(OC)C(OC(=O)c8ccc(C)[nH]8)C7O)c(C)c6oc5=O)c4)c(=O)oc3c2C)OC1(C)C (stereo not drawn) [Cmpd 4] , tested on STAT5b-GyrB fusion proteins?
RESULT: 19290 cpm

QUERY: Could you share what Prolif. (cpm) was measured for COC1C(OC(=O)c2ccc(C)[nH]2)C(O)C(Oc2ccc3c(O)c(NC(=O)c4ccc(C(=O)Nc5c(O)c6ccc(OC7OC(C)(C)C(OC)C(OC(=O)c8ccc(C)[nH]8)C7O)c(C)c6oc5=O)s4)c(=O)oc3c2C)OC1(C)C (stereo not drawn) [Cmpd 9] , tested on STAT5b-GyrB fusion proteins?
RESULT: 18126 cpm

* * *

Please respond with reported Prolif. for every item in the list.
- Test system: STAT5b-GyrB fusion proteins
- condition.notes: Table 2, Example 1; stimulus 16.3 nM

QUERY: I have this compound here, COC1C(OC(N)=O)C(O)C(Oc2ccc3c(O)c(NC(=O)COCCOCCOCC(=O)Nc4c(O)c5ccc(OC6OC(C)(C)C(OC)C(OC(N)=O)C6O)c(C)c5oc4=O)c(=O)oc3c2C)OC1(C)C (centres unmarked) [CCmpd 2, reference compound] , and I need its recorded Prolif..
RESULT: 14459

QUERY: I have this compound here, COC1C(OC(=O)c2ccc(C)[nH]2)C(O)C(Oc2ccc3c(O)c(NC(=O)c4c[nH]c(C(=O)Nc5c(O)c6ccc(OC7OC(C)(C)C(OC)C(OC(=O)c8ccc(C)[nH]8)C7O)c(C)c6oc5=O)c4C)c(=O)oc3c2C)OC1(C)C (centres unmarked) [Cou., coumermycin] , and I need its recorded Prolif..
RESULT: 16261

QUERY: I have this compound here, COC1C(OC(=O)c2ccc(C)[nH]2)C(O)C(Oc2ccc3c(O)c(NC(=O)COCCOCCOCC(=O)Nc4c(O)c5ccc(OC6OC(C)(C)C(OC)C(OC(=O)c7ccc(C)[nH]7)C6O)c(C)c5oc4=O)c(=O)oc3c2C)OC1(C)C (centres unmarked) [Cmpd 5] , and I need its recorded Prolif..
RESULT: 14277

QUERY: I have this compound here, COC1C(OC(=O)c2ccc(C)[nH]2)C(O)C(Oc2ccc3c(O)c(NC(=O)COCCOCC(=O)Nc4c(O)c5ccc(OC6OC(C)(C)C(OC)C(OC(=O)c7ccc(C)[nH]7)C6O)c(C)c5oc4=O)c(=O)oc3c2C)OC1(C)C (centres unmarked) [Cmpd 6] , and I need its recorded Prolif..
RESULT: 14710

QUERY: I have this compound here, COC1C(OC(N)=O)C(O)C(Oc2ccc3c(O)c(NC(=O)COCCOCC(=O)Nc4c(O)c5ccc(OC6OC(C)(C)C(OC)C(OC(N)=O)C6O)c(C)c5oc4=O)c(=O)oc3c2C)OC1(C)C (centres unmarked) [CCmpd 1, reference compound] , and I need its recorded Prolif..
RESULT: 14691
